Would you kindly list EC20 Pericard size Increase for each of these compounds?
System: Danio rerio embryo
Test: EC20 Pericard size_Increase; higher = less potent
Details: exposure time: 4 dpf
Numbers only, in µM.

Example results:
[[record]]
compound = "CCOC(=O)N1CCC(=C2c3ccc(Cl)cc3CCc3cccnc32)CC1 [Loratadine]"
experimental_value = 4.72

[[record]]
compound = "COC(=O)Nc1nc2ccccc2[nH]1 [Carbendazim]"
experimental_value = 2.76

[[record]]
compound = "CC1(C)O[C@@H]2[C@@H](CO[C@@]3(COS(N)(=O)=O)OC(C)(C)O[C@@H]23)O1 [Topiramate]"
experimental_value = 302

[[record]]
compound = "C[C@@H]1C[C@H]2[C@@H]3CCC4=CC(=O)C=C[C@]4(C)[C@@]3(F)[C@@H](O)C[C@]2(C)[C@@]1(O)C(=O)CO [Dexamethasone]"
experimental_value = 22.8


Kindly consider the entry below.
Problem: Entry CCO/N=C(\CC)C1=C(O)CC(c2c(C)cc(C)cc2C)CC1=O (stereo not given) [Tralkoxydim] : reported EC20 Pericard size Increase = ?
Solution: 104

Measured values drawn from the supplement of paper PMC9013687 for this set.
